Tested on: lymphocytic leukemia P388
Assay: Lymphocytic Leukemia P388 Test
Type: in vivo, BDF1 mice
Settings: dose 1.5 mg/kg intraperitoneally on days 1, 5 and 9; BDF1 mice
Assignment: determine reported Median Survival for the given compounds.
Reply with a number, then the unit it belongs to.

For each of the compounds below, note its Median Survival.
1. Br.Br.N=C(N)NCCC[C@H](N)C(=O)NCCNc1ccc(NCCNC(=O)[C@@H](N)CCCNC(=N)N)c2c1C(=O)c1c(O)ccc(O)c1C2=O
2. Br.Br.CC(C)C[C@H](NC(=O)[C@H](C)NC(=O)[C@@H](N)CC(C)C)C(=O)NCCNc1ccc(NCCNC(=O)[C@H](CC(C)C)NC(=O)[C@H](C)NC(=O)[C@@H](N)CC(C)C)c2c1C(=O)c1c(O)ccc(O)c1C2=O
3. CC(C)(C)OC(=O)C[C@H](N)C(=O)NCCNc1ccc(NCCNC(=O)[C@@H](N)CC(=O)OC(C)(C)C)c2c1C(=O)c1c(O)ccc(O)c1C2=O (relative stereo)

Result:
["27.0 days", "25.5 days", "19.5 days"]

For each of the compounds below, note its Median Survival.
1. CC[C@H](C)[C@H](N)C(=O)NCCNc1ccc(NCCNC(=O)[C@@H](N)[C@@H](C)CC)c2c1C(=O)c1c(O)ccc(O)c1C2=O.Cl.Cl (relative stereo)
2. C[C@H](N)C(=O)N[C@@H](C)C(=O)N[C@@H](C)C(=O)NCCNc1ccc(NCCNC(=O)[C@H](C)NC(=O)[C@H](C)NC(=O)[C@H](C)N)c2c1C(=O)c1c(O)ccc(O)c1C2=O.O=C(O)C(F)(F)F.O=C(O)C(F)(F)F
3. C[C@H](NC(=O)[C@H](CO)NC(=O)[C@@H](N)CC(=O)OC(C)(C)C)C(=O)NCCNc1ccc(NCCNC(=O)[C@H](C)NC(=O)[C@H](CO)NC(=O)[C@@H](N)CC(=O)OC(C)(C)C)c2c1C(=O)c1c(O)ccc(O)c1C2=O

Result:
1: 18.0 days; 2: 24.5 days; 3: 23.0 days

###

Tested on: lymphocytic leukemia P388
Test: Lymphocytic Leukemia P388 Test
Format: in vivo, BDF1 mice
Conditions: dose 0.75 mg/kg intraperitoneally on days 1, 5 and 9; BDF1 mice
Assignment: determine reported Median Survival for the given compounds.
One number for each entry, in days.

Br.Br.CC(C)C[C@H](NC(=O)[C@H](C)NC(=O)[C@@H](N)CC(C)C)C(=O)NCCNc1ccc(NCCNC(=O)[C@H](CC(C)C)NC(=O)[C@H](C)NC(=O)[C@@H](N)CC(C)C)c2c1C(=O)c1c(O)ccc(O)c1C2=O ... 20.5
Br.Br.C[C@H](N)C(=O)NCC(=O)NCCNc1ccc(NCCNC(=O)CNC(=O)[C@H](C)N)c2c1C(=O)c1c(O)ccc(O)c1C2=O ... 21.0
O=C(CNC(=O)CNC(=O)OCc1ccccc1)NCCNc1ccc(NCCNC(=O)CNC(=O)CNC(=O)OCc2ccccc2)c2c1C(=O)c1c(O)ccc(O)c1C2=O ... 12.0
Br.Br.C[C@H](NC(=O)OC(C)(C)C)C(=O)N[C@@H](C)C(=O)N[C@@H](CCCNC(=N)N)C(=O)NCCNc1ccc(NCCNC(=O)[C@H](CCCNC(=N)N)NC(=O)[C@H](C)NC(=O)[C@H](C)NC(=O)OC(C)(C)C)c2c1C(=O)c1c(O)ccc(O)c1C2=O ... 17.0
N[C@@H](CC(=O)O)C(=O)NCCNc1ccc(NCCNC(=O)[C@@H](N)CC(=O)O)c2c1C(=O)c1c(O)ccc(O)c1C2=O.O=C(O)C(F)(F)F.O=C(O)C(F)(F)F (relative stereo) ... 23.0
Br.Br.C[C@H](NCCNc1ccc(NCCN[C@@H](C)C(=O)N[C@@H](CCCNC(=N)N)C(=O)OC(C)(C)C)c2c1C(=O)c1c(O)ccc(O)c1C2=O)C(=O)N[C@@H](CCCNC(=N)N)C(=O)OC(C)(C)C ... 17.0
O=C(O)C(F)(F)F.O=C(O)C(F)(F)F.O=C(O)CC[C@H](NC(=O)OCc1ccccc1)C(=O)NCCNc1ccc(NCCNC(=O)[C@H](CCC(=O)O)NC(=O)OCc2ccccc2)c2c1C(=O)c1c(O)ccc(O)c1C2=O (relative stereo) ... 14.0
CC(C)[C@H](N)C(=O)NCCNc1ccc(NCCNC(=O)[C@@H](N)C(C)C)c2c1C(=O)c1c(O)ccc(O)c1C2=O.Cl.Cl (relative stereo) ... 18.5

For each of the compounds below, note its Median Survival.
1. CC(C)C[C@H](NC(=O)[C@H](C)NC(=O)[C@@H](N)CC(=O)OC(C)(C)C)C(=O)NCCNc1ccc(NCCNC(=O)[C@H](CC(C)C)NC(=O)[C@H](C)NC(=O)[C@@H](N)CC(=O)OC(C)(C)C)c2c1C(=O)c1c(O)ccc(O)c1C2=O
2. CC(C)C[C@H](NC(=O)[C@H](C)NC(=O)OC(C)(C)C)C(=O)NCCNc1ccc(NCCNC(=O)[C@H](CC(C)C)NC(=O)[C@H](C)NC(=O)OC(C)(C)C)c2c1C(=O)c1c(O)ccc(O)c1C2=O

Result:
1: 21.0; 2: 12.0
